- test_summary: Drug level in blood of Sprague-Dawley rat with capsaicin-induced flinching at 1 mg/kg, po administered 1 hr before capsaicin challenge
- Type: ADME, organism-based
- Parameters: dose 1 mg/kg, route oral
- setup_conditions: read-out: Drug uptake
property: concentration at 1 h (ng/mL)
Provide the reading as a plain figure in ng/mL.

Provide one value: measured concentration at 1 h of COCCNc1nc(C(F)(F)F)ccc1-c1cc(Oc2cccc3[nH]c(=O)c(N)nc23)ncn1 19

====

- test_summary: Drug level in blood of Sprague-Dawley rat with capsaicin-induced flinching at 0.3 mg/kg, po administered 1 hr before capsaicin challenge
- Format: ADME, organism-based
- Set-up: dose 0.3 mg/kg, route oral
- setup_conditions: read-out: Drug uptake
property: concentration at 1 h (ng/mL)
Provide the reading as a plain figure in ng/mL.

Provide one value: measured concentration at 1 h of COCCNc1nc(Oc2cccc3[nH]c(=O)c(N)nc23)cc(-c2ccc(C(F)(F)F)cc2)n1 24.9

====

Examples of compounds with documented pIC50 follow.
- assay_system: Transient receptor potential cation channel subfamily V member 1 (Rattus norvegicus)
- Sequence (O35433 whole entry): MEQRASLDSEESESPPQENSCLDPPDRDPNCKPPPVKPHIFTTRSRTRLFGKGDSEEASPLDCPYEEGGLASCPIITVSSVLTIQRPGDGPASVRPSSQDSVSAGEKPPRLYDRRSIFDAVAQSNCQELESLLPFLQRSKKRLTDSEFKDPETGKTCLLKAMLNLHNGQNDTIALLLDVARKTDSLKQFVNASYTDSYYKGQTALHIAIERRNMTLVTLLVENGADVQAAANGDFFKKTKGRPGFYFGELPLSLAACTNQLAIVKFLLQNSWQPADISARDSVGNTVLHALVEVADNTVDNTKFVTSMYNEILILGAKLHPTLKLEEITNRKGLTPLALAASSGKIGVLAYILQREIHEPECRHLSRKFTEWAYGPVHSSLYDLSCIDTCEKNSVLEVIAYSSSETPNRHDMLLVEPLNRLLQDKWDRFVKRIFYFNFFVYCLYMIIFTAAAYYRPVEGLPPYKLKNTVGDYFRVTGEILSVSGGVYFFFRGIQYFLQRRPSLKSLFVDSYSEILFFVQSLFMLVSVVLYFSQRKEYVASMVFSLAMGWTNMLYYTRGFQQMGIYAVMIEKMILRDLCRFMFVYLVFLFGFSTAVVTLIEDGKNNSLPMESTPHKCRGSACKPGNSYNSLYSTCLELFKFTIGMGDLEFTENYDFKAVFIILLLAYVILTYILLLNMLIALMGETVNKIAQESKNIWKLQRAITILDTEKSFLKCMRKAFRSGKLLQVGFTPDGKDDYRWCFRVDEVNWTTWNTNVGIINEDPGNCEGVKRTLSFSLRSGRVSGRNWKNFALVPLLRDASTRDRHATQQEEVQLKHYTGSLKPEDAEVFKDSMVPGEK
- test_summary: Antagonist activity at rat TRPV1 expressed in CHO cells assessed as inhibition of pH 5 acid-induced calcium influx
- Assay type: functional, cell-based
The value called pIC50 is obtained by taking minus log10 of the concentration in mol/L.

compound	assay_system	pIC50
CC(C)(C)CN1CCCCC1CNc1nc(Oc2cccc3[nH]c(=O)c(N)nc23)cc(-c2ccc(C(F)(F)F)cc2)n1 (configuration not stated)	Transient receptor potential cation channel subfamily V member 1 (Rattus norvegicus)	8.68
COC[C@H](C)Nc1nc(Oc2cccc3[nH]c(=O)c(N)nc23)cc(-c2ccc(C(F)(F)F)cc2)n1	Transient receptor potential cation channel subfamily V member 1 (Rattus norvegicus)	9.00
COC[C@H](C)Nc1nc(Oc2cccc3[nH]c(=O)c(N)nc23)cc(-c2ccc(C(F)(F)F)cc2N)n1	Transient receptor potential cation channel subfamily V member 1 (Rattus norvegicus)	8.57
CC(Nc1nc(Oc2cccc3[nH]c(=O)c(N)nc23)cc(-c2ccc(C(F)(F)F)cc2)n1)c1ccccn1 (configuration not stated)	Transient receptor potential cation channel subfamily V member 1 (Rattus norvegicus)	8.24
COCCNc1nc(Oc2cccc3[nH]c(=O)c(N)nc23)cc(-c2ccc(C(F)(F)F)cc2N)n1	Transient receptor potential cation channel subfamily V member 1 (Rattus norvegicus)	8.23

Provide one value: measured pIC50 of COC[C@@H](C)Nc1nc(Oc2cccc3[nH]c(=O)c(N)nc23)cc(-c2ccc(C(F)(F)F)cc2)n1 9.52

Provide one value: measured pIC50 of Nc1nc2c(Oc3cc(-c4ccc(C(F)(F)F)cc4NC(=O)c4ccccn4)ncn3)cccc2[nH]c1=O 9.15

Provide one value: measured pIC50 of CC(=O)Nc1nc2c(Oc3cc(-c4ccc(C(F)(F)F)cc4N)ncn3)cccc2s1 8.44

Provide one value: measured pIC50 of CC(C)(C)NC(=O)Nc1cc(C(F)(F)F)ccc1-c1cc(Oc2cccc3[nH]c(=O)c(N)nc23)ncn1 8.28

Provide one value: measured pIC50 of CC(C)CN1CCCCC1CNc1nc(C(F)(F)F)ccc1-c1cc(Oc2cccc3[nH]c(=O)c(N)nc23)ncn1 (configuration not stated) 8.77

Provide one value: measured pIC50 of Nc1nc(C(F)(F)F)ccc1-c1cc(Oc2cccc3[nH]c(=O)c(N)nc23)ncn1 8.57

Provide one value: measured pIC50 of CC(O)CCNc1nc(Oc2cccc3[nH]c(=O)c(N)nc23)cc(-c2ccc(C(F)(F)F)cc2)n1 (configuration not stated) 8.06

Provide one value: measured pIC50 of Nc1cc(C(F)(F)F)ccc1-c1cc(Oc2cccc3[nH]c(=O)c(N)nc23)ncn1 8.41

Provide one value: measured pIC50 of Nc1nc(Oc2cccc3[nH]c(=O)c(N)nc23)cc(-c2ccc(C(F)(F)F)cc2N)n1 7.21

Provide one value: measured pIC50 of COCCNc1nc(Oc2cccc3[nH]c(=O)c(N)nc23)cc(-c2ccc(C(F)(F)F)cc2)n1 9.10

Provide one value: measured pIC50 of CC(=O)Nc1nc2c(Oc3cc(-c4ccc(C(F)(F)F)cc4NC(=O)NC(C)(C)C)ncn3)cccc2s1 8.22

Provide one value: measured pIC50 of Nc1nc2c(Oc3cc(-c4ccc(C(F)(F)F)cc4NC(=O)c4ccncc4)ncn3)cccc2[nH]c1=O 8.68
